Tested on: HEK-293T
run-description: Multiplex assay against HEK293T
Format: toxicity, cell-based
applied-conditions: human, 12 h, 1 µM, compound concentration 1 uM, replicate 1
Record form. Attribute: Population Healthy Nuclei (%). Fill in for each entry.
Answers are plain numbers, in %.

These solved cases illustrate the format of a correct answer.
Cl.Cl.NC1(c2ccc(-c3nc4ccn5c(=O)[nH]nc5c4cc3-c3ccccc3)cc2)CCC1; 63
CNC(=O)c1cc(Oc2ccc(NC(=O)Nc3cc(C(C)(C)C)nn3-c3ccc4ncccc4c3)c(F)c2)ccn1; 66
CC(C)(C)c1cnc(CSc2cnc(NC(=O)C3CCNCC3)s2)o1; 51

Required: Population Healthy Nuclei (%), one value per compound below.
1. CNc1oc(-c2cccc3ccccc23)nc1C#N
2. CNC(=O)c1nn(C)c2c1C(C)(C)Cc1cnc(Nc3ccc(N4CCN(C)CC4)cc3)nc1-2
3. CCn1c(-c2nonc2N)nc2cnc(Oc3cccc(NC(=O)c4ccc(OCCN5CCOCC5)cc4)c3)cc21 [GSK-269962A]
4. CN(C)C/C=C/C(=O)Nc1cc2c(Nc3ccc(F)c(Cl)c3)ncnc2cc1O[C@H]1CCOC1.O=C(O)/C=C\C(=O)O.O=C(O)/C=C\C(=O)O [AFATINIB DIMALEATE]
5. CC(C)N1CCC(C)(C)c2cc(C#Cc3ccc(C(=O)O)cc3)ccc21
6. COc1cc2c(NC3CCN(C(C)C)CC3)nc(N3CCC(F)(F)CC3)nc2cc1OCCCN1CCCC1
7. Cl.Cl.Nc1ncnc2c1c(-c1cccc(OCc3ccccc3)c1)cn2[C@H]1C[C@@H](CN2CCC2)C1
8. O=C(O)c1ccc2cc(-c3ccc(O)c(C45CC6CC(CC(C6)C4)C5)c3)ccc2c1

1. 60
2. 41
3. 26
4. 54
5. 45
6. 32
7. 17
8. 60

# batch: return Population Healthy Nuclei (%) for each of the 5 compounds below
1. Cc1nc(Cc2cccc(C(F)(F)F)c2)sc1-c1ccc(C(N)=O)nc1 [TP-024n]
2. COc1cc(N2CCC(N(C)C)CC2)ccc1Nc1ncc(Cl)c(Nc2ccccc2P(C)(C)=O)n1
3. Cc1cc2c(cc1N1C(=O)c3cccc4c(CCCO)ccc(c34)C1=O)n(C)c(=O)n2C
4. CCCn1c(=O)c2[nH]c(C34CC5CC(CC3C5)C4)nc2n(CCC)c1=O
5. CC(C)Oc1ccc(C(=O)N[C@H](CNC(=O)CN(C)C)Cc2ccc(-c3cn4cccc([C@H](C)O)c4n3)cc2)cc1Cl [GSK-923295A]

53
61
44
30
61

// Population Healthy Nuclei (%) lookup, key: COc1ccc(NS(=O)(=O)c2sc3ccc(Cl)cc3c2C)cc1N1CCNCC1.Cl
36

* * *

Test system: HEK-293T
run-description: Multiplex assay against HEK293T;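 on Population Tubulin-Different-Phenotype (%): share of the cells with healthy nuclei that show this phenotype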
Assay type: toxicity, cell-based
applied-conditions: human, 48 h, 1 µM, compound concentration 1 uM, replicate 1
quantity-name: Population Tubulin-Different-Phenotype (%)
Numbers only, in %.

Please supply Population Tubulin-Different-Phenotype (%) for each of the following items, keeping them in order.
1. Nc1nc2c(c(N3CCNCC3)n1)CCC1=C2[C@@H]2CCCC[C@@H]2O1
2. CCc1cc2c(cc1CC)CC(NC[C@H](O)c1ccc(O)c3[nH]c(=O)ccc13)C2 [INDACATEROL]
3. CCCn1c(=O)c2[nH]c(C34CC5CC(CC3C5)C4)nc2n(CCC)c1=O [ROLOFYLLINE]
4. CC(C)N1CCC(C)(C)c2cc(C#Cc3ccc(C(=O)O)cc3)ccc21
5. COc1cc2c(NC3CCN(C(C)C)CC3)nc(N3CCC(F)(F)CC3)nc2cc1OCCCN1CCCC1
6. CC(=O)c1cc(-c2cc(C(=O)NC3CC3)ccc2C)c2ncccn12
7. Cl.Cl.Nc1ncnc2c1c(-c1cccc(OCc3ccccc3)c1)cn2[C@H]1C[C@@H](CN2CCC2)C1
8. Cc1nc(Cc2cccc(C(F)(F)F)c2)sc1-c1ccc(C(N)=O)nc1 [TP-024n]

1. 26
2. 33
3. 70
4. 27
5. 38
6. 28
7. 78
8. 25

Below are 4 compounds. Give each one its Population Tubulin-Different-Phenotype (%).
1. CCn1c(-c2nonc2N)nc2cnc(Oc3cccc(NC(=O)c4ccc(OCCN5CCOCC5)cc4)c3)cc21 [GSK-269962A]
2. Nc1ccc(C(=O)Nc2cccc(-c3nc(N4CCOCC4)c4oc5ncccc5c4n3)c2)cn1
3. O=C(O)c1ccc2cc(-c3ccc(O)c(C45CC6CC(CC(C6)C4)C5)c3)ccc2c1 [O-DEMETHYLATED ADAPALENE]
4. COc1ccc(NS(=O)(=O)c2sc3ccc(Cl)cc3c2C)cc1N1CCNCC1.Cl

[45, 86, 10, 32]

# map each compound to its Population Tubulin-Different-Phenotype (%)
1. Cc1cc2c(cc1N1C(=O)c3cccc4c(CCCO)ccc(c34)C1=O)n(C)c(=O)n2C
2. CNc1oc(-c2cccc3ccccc23)nc1C#N
3. CCC(=O)O[C@]1(C(=O)SCF)[C@H](C)C[C@H]2[C@@H]3C[C@H](F)C4=CC(=O)C=C[C@]4(C)[C@@]3(F)[C@@H](O)C[C@@]21C [FLUTICASONE PROPIONATE]

[29, 17, 28]

* * *

Provide the recorded Growth Rate for the entries that follow.
System: U2OS
run-description: Incucyte cell viability with U2OS; further: filed as whole numbers so only -1 and 0 and 1 occur
Assay type: toxicity, cell-based
applied-conditions: human, 12 h, 10 µM, compound concentration 10 uM, replicate number 2, timepoint 12 hours

CS(=O)(=O)c1cc(C2(NC(=O)c3cncc4c3cnn4-c3ccc(F)cc3)CC2)ccn1 [BI 639667]; 0
CCCCN(CCCC)C(=O)CN1C[C@@H](c2cc(OC)c3c(c2)OCO3)[C@H](C(=O)O)[C@H]1CC(C)(C)CCC [A-545]; 1
CC(C)Oc1ccc(-c2nn([C@@H](C)c3oc4ccc(F)cc4c(=O)c3-c3cccc(F)c3)c3ncnc(N)c23)cc1F [UMBRALISIB]; 1

Recall the recorded Growth Rate for Cc1cc(C)cc(C(=O)N(C)[C@H](Cc2ccc(-c3ccccc3)cc2)C(=O)N[C@@H](Cc2c[nH]c3ccccc23)C(=O)O)c1 with U2OS and state it.
1

* * *

Test system: U2OS
run-description: Multiplex assay against U2OS
Type: toxicity, cell-based
applied-conditions: human, 24 h, 10 µM, compound concentration 10 uM, replicate 1
quantity-name: Population Hoechst High Intensity Objects (%)
Numbers only, in %.

CCn1c(-c2nonc2N)nc2cnc(Oc3cccc(NC(=O)c4ccc(OCCN5CCOCC5)cc4)c3)cc21 [GSK-269962A]; 9

# batch: return Population Hoechst High Intensity Objects (%) for each of the 3 compounds below
1. Cl.Cl.NC1(c2ccc(-c3nc4ccn5c(=O)[nH]nc5c4cc3-c3ccccc3)cc2)CCC1
2. Nc1ccc(C(=O)Nc2cccc(-c3nc(N4CCOCC4)c4oc5ncccc5c4n3)c2)cn1
3. CNC(=O)c1cc(Oc2ccc(NC(=O)Nc3cc(C(C)(C)C)nn3-c3ccc4ncccc4c3)c(F)c2)ccn1 [REBASTINIB]

1: 19; 2: 23; 3: 18

* * *

Test system: Fibroblast
run-description: Multiplex assay against human fibroblast
Assay type: toxicity, cell-based
applied-conditions: 12 h, 10 µM, compound concentration 10 uM, replicate 2
Population Normal (%) less than 90% is met; Population Normal (%) greater than or equal to 90% is not met.

I'd appreciate it if you could check whether c1ccc2oc(-c3csc(C4CCN(Cc5nc6ncccc6[nH]5)CC4)n3)cc2c1 has Population Normal (%) smaller than 90%.
met

* * *

Test system: HEK-293T
run-description: Multiplex assay against HEK293T;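 on Population Tubulin-Different-Phenotype (%): share of the cells with healthy nuclei that show this phenotype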
Format: toxicity, cell-based
applied-conditions: human, 24 h, 10 µM, compound concentration 10 uM, replicate 1
Binary classification by Population Tubulin-Different-Phenotype (%), with 30% as an inclusive lower bound for rule met; all other cases are rule not met.

CCOc1cc(N2CCC(O)CC2)ccc1Nc1ncc2c(n1)N(C1CCCC1)CCC(=O)N2C; rule not met
N#Cc1cnc(Nc2cc(NC[C@H]3CNCCO3)c(C(F)(F)F)cn2)cn1 [SRA-737]; rule not met
CCn1c(-c2nonc2N)nc2cnc(Oc3cccc(NC(=O)c4ccc(OCCN5CCOCC5)cc4)c3)cc21 [GSK-269962A]; rule met
CN(C)CCOc1ccc(-c2nc(-c3ccncc3)c(-c3ccc4c(c3)CC/C4=N\O)[nH]2)cc1 [SB590885]; rule not met
CC(C)N1CCC(C)(C)c2cc(C#Cc3ccc(C(=O)O)cc3)ccc21; rule not met
Nc1ccc(C(=O)Nc2cccc(-c3nc(N4CCOCC4)c4oc5ncccc5c4n3)c2)cn1; rule met
Cc1nc(Cc2cccc(C(F)(F)F)c2)sc1-c1ccc(C(N)=O)nc1 [TP-024n]; rule met
COc1ccc(NS(=O)(=O)c2sc3ccc(Cl)cc3c2C)cc1N1CCNCC1.Cl; rule met

Could you please find out whether CCOc1cc2ncc(C#N)c(Nc3ccc(OCc4cccc(F)c4)c(Cl)c3)c2cc1NC(=O)/C=C/CN(C)C [HKI-357] has Population Tubulin-Different-Phenotype (%) that meets 30% or exceeds it?
rule met

Does the molecule CNc1oc(-c2cccc3ccccc23)nc1C#N have recorded Population Tubulin-Different-Phenotype (%) that is 30% or more?
rule not met
